# assay: Toxicity liver stage against HepG2, at 10uM
# Format: cell-based
# Design: test concentration 10 uM, cell line HepG2-A16-CD81EGFP
# condition label: human, HepG2-A16-CD81EGFP cells; read-out: INHIBITION
readout: cytotoxicity at 10 µM (%)
Report only the number, with the unit % understood.

Worked set:
> print(dat)
                                   molecule  obs.value
1  CS(=O)(=O)CCn1ccc(NC(=O)Cc2c[nH]c3ccccc23)n1          2
2   CCCS(=O)(=O)N1CCN(c2ccc3nnc(CC)n3n2)CC1       8.75

Exercise: Fill blank: measured cytotoxicity at 10 µM of the molecule `c1cc(CNc2ccc(-c3nc(C4CC4)no3)cn2)no1` is ____.
Key: 1.79

Exercise: Next: `Cc1cc(CNc2ccc(C(F)(F)F)cc2)no1`
Key: -54

Exercise: Next: CS(=O)(=O)N1CCCC12CCN(Cc1nccs1)C2 (stereo not given)
Key: 2.26

Exercise: Next: CCOc1ccc2ccccc2c1CNCC1CCS(=O)(=O)C1 (stereo not given)
Key: -3.4

Exercise: Next: `COc1ccc(-c2cnc3c(c2)CN(C2CC2)C(=O)CCN3)cc1`
Key: 4.09

Exercise: Next: `C=C(C)CN(CC)C(=O)c1cc(F)ccc1N1CCN(C)CC1`
Key: -1.18

Exercise: Next: CCc1nc(C2CCCN(C(=O)c3ccc(O)nc3)C2)no1 (stereo not given)
Key: -11.7

Exercise: Next: `CO[C@H]1C[C@@H](O)C12CCN(C(=O)c1cccc(CCC(C)(C)O)c1)CC2`
Key: 2.74

Exercise: Next: `CC(C)N1CCc2c(CN(C)Cc3ccco3)cncc2C1`
Key: -2.39

Exercise: Next: Cc1cc(C)nc(N2CCN(C(=O)c3ccc(C4CCCO4)s3)CC2)n1 (stereo not given)
Key: 9.07

Exercise: Next: CN(C)c1nc2c(c(N3CCC4(CCCNC4=O)C3)n1)CCCC2 (stereo not given)
Key: -5.81

Exercise: Next: `Cc1nc(N2CCCC2)ncc1C(=O)Nc1ccc(Br)cc1`
Key: -1.85

Exercise: Next: `Cc1nn(Cc2ccc(F)cc2)c2[nH]nc(N)c12`
Key: 1.11

Exercise: Next: Fc1ccccc1Cc1noc(CN2CCCC(CN3CCCC3)C2)n1 (stereo not given)
Key: -12.3

Exercise: Next: `CCn1nccc1CNC(=O)C1CCCCC1`
Key: -0.488

Source listed as ChEMBL document CHEMBL4513216.
